System: phospholamban
TEST PROTOCOL: Ca2+ uptake into SR vesicles prepared from cardiac tissue (fluo-3)
Type: biochemical, guinea pig
SETUP CONDITIONS: 100 μM compound; 0.1 μM free calcium
Classify: y when The stimulation (%) of Ca^2+ uptake, A (ventricular myocardium vesicles) is strictly less than 10%; n when The stimulation (%) of Ca^2+ uptake, A (ventricular myocardium vesicles) is not.

Does the reported The stimulation (%) of Ca^2+ uptake, A (ventricular myocardium vesicles) of the following compound sit strictly below 10%? Cc1c(Cc2ccccc2)c(=O)oc2cc(OC(C)c3nn[nH]n3)cc(OC(C)c3nn[nH]n3)c12 (stereo not drawn) [Example 11b]
n

Strictly below 10%: is that where The stimulation (%) of Ca^2+ uptake, A (ventricular myocardium vesicles) of Cc1cc(=O)n(Cc2ccccc2)c2cc(OCc3nnn[nH]3)cc(OCc3nnn[nH]3)c12 [Example 18e] sits?
n

Is The stimulation (%) of Ca^2+ uptake, A (ventricular myocardium vesicles) strictly under 10% for the entry Cc1c(CCc2ccccc2)c(=O)oc2cc(OCc3nn[nH]n3)cc(OCc3nn[nH]n3)c12 ?
y

Consider the compound Cc1c(Cc2ccccc2)c(=O)n(Cc2ccccc2)c2cc(OCC(=O)O)cc(OCC(=O)O)c12 . Is its The stimulation (%) of Ca^2+ uptake, A (ventricular myocardium vesicles) strictly less than 10%?
n

Check if The stimulation (%) of Ca^2+ uptake, A (ventricular myocardium vesicles) falls below 10% for Cc1c(Cc2ccccc2)c(=O)n(Cc2ccccc2)c2cc(OCC(N)=O)cc(OCC(N)=O)c12 .
n

I wonder whether O=c1oc2cc(OCc3nn[nH]n3)cc(OCc3nn[nH]n3)c2c2c1C(c1ccccc1)CCC2 (stereo not drawn) has The stimulation (%) of Ca^2+ uptake, A (ventricular myocardium vesicles) below 10%. Can you tell?
n
